Target: T1, P. falciparum aldolase (P. falciparum, UniProt Q7KQL9 1-369)
T1 construct: also called fructose 1,6-bisphosphate aldolase; parasite aldolase; source: prepared as described previously [42]
T1 sequence (looked up): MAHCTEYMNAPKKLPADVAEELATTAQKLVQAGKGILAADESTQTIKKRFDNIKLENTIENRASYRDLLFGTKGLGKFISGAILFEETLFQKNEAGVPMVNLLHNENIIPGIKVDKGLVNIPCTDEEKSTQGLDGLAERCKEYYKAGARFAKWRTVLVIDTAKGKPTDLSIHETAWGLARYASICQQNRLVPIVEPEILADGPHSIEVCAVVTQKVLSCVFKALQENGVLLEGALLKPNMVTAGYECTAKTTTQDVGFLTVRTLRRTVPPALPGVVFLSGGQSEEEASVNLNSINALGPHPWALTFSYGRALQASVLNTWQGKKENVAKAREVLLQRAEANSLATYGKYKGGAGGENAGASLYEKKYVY
Assay: BLI
Details: both partners purified
Where no end group is shown, it is not given here. The star is where a group is joined. Biotin = O=C1N[C@H]2[C@H](CS[C@H]2CCCCC(=O)*)N1
property: Kd (µM)
Report the value in µM with no unit label.

{"binder": "Biotin-YFLRKEKTEKVVQEETKEENFEVMFNDDALKGKDNKAMDEEEFWALE (source: synthetic peptide; bought: Biomatik, USA) [MTRAP full length CTD (452–498), synthetic biotinylated peptide]", "Kd, µM": 13.8}
{"binder": "Biotin-YKFVVPGAATPYAGEPAPFDETLGEEDKDLDEPEQFRLPEENEWN (source: synthetic peptide; bought: Biomatik, USA) [TRAP full length CTD (530–574)]", "Kd, µM": 5}
{"binder": "EBA140 CTD (1155–1210) (also called EBA140 unmodified; source: synthetic peptide; bought: Biomatik, USA) peptide: Biotin-RMGKSNEEYDIGESNIEATFEENNYLNKLSRIFNQEVQETNISDYSEYNYNEKNMY", "Kd, µM": 83}

// next entry
*Q* Reported Kd for AMA1 full length CTD (567–622) (source: synthetic peptide; bought: Biomatik, USA) peptide: Biotin-YKRKGNAEKYDKMDEPQDYGKSNSRNDEMLDPEASFWGEEKRASHTTPVLMEKPYY : what is it?
*A* 53
